Molecular target: T1, full length human MSR1 with a C-terminal Myc tag, on HEK293.Myc.hMSR1 cells (human, UniProt P21757 1-451); also: test concentration or dose not given here
T1 sequence (looked up): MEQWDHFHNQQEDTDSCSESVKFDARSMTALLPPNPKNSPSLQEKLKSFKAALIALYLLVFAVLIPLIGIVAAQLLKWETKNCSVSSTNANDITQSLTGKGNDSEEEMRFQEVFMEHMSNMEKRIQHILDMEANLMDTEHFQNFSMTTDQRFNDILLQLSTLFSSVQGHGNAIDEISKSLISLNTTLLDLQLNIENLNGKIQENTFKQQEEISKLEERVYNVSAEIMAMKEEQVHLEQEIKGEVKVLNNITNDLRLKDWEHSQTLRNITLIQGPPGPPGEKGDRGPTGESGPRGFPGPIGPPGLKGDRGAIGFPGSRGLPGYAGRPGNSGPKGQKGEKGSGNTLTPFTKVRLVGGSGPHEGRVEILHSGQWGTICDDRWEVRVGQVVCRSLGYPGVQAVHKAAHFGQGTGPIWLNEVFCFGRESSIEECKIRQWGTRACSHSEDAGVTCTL
Assay: cell-based or functional assay
# % Inhibition of Dil-Acetylated LDL uptake per record follows
Express the result in % but write the number alone.

binder: H1H21234N-N297Q (antibody, human IgG1, V domains shown, human IgG1 Fc with N297Q point mutation (EU numbering)) VH: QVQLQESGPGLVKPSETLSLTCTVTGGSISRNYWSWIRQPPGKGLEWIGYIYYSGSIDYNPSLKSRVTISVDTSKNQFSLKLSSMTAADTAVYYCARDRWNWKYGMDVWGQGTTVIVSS VL: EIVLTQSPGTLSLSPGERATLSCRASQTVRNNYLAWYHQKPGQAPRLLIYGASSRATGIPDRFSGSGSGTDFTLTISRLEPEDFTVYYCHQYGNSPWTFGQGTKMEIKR
measure-unit: %
measured: 34
//
binder: H2aM21227N (antibody, mouse IgG2a, V domains shown) VH: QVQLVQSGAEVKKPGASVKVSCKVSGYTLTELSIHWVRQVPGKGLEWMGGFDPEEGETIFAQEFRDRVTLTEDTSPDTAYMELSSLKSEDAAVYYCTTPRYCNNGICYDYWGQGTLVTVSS VL: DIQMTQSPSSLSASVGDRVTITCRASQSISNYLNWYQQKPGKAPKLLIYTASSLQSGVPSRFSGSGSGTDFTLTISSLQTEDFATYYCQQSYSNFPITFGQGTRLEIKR
measure-unit: %
measured: 62

Would you kindly look at the next entry?
Prompt: Identify measured % Inhibition of Dil-Acetylated LDL uptake associated with H1M21231N (antibody, V domains shown) VH: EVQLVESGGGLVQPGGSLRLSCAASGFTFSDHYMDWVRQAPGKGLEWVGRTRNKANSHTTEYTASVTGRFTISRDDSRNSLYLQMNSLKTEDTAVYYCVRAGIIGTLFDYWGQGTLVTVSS VL: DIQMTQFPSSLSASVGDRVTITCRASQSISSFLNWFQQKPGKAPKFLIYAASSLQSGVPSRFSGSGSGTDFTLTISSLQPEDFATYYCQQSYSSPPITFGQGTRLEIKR
Response: 50
